Each record here notes measured ELISA (T/B).
target: T1, human plasma kallikrein (human, UniProt P03952 20-390; P03952 391-638); experiment: ELISA, biotinylated pKal signal over streptavidin background
T1 construct: two disulfide-linked chains; NP_000883.2; also called pKal; hpKal
T1 sequence (P03952 20-390 limits assumed, chain 1 of 2): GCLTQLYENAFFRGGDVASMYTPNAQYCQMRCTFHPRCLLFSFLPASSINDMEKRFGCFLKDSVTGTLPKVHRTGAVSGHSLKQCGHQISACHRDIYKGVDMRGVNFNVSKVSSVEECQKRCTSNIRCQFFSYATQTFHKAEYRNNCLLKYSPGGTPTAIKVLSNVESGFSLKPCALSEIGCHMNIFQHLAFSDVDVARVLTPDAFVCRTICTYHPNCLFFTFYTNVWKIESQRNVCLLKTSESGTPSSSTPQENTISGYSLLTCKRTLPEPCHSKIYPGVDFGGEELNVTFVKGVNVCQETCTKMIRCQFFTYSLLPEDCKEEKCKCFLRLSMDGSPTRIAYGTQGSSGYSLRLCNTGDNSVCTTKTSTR
T1 sequence (P03952 391-638 limits assumed, chain 2 of 2): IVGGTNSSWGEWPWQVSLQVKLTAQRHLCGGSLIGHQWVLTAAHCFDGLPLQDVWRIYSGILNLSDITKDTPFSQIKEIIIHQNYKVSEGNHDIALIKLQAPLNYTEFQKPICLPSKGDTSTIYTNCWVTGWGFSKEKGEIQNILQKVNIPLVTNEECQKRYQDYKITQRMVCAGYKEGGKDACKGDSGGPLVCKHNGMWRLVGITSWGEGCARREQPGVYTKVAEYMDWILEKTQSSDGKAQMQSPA
Keep the answer to the number alone.

INSERT INTO assay_data (binder, measuredendpoint, observedvalue) VALUES
  ('M6-G05 (Fab, V domains shown) VH: EVQLLESGGGLVQPGGSLRLSCAASGFTFSRYRMVWVRQAPGKGLEWVSSIYPSGGMTAYADSVKGRFTISRDNSKNTLYLQMNSLRAEDTAVYYCARDAVGIGDAFDIWGQGTMVTVSS VL: DIQMTQSPSSLSASVGDRVTITCRASQSISTYLNWYQLKPGKAPKLLIYNAFSMERGVPSTISGSGSGTDFTLTISSLQPEDFATYYCQQSYTTPTTFGQGTKVEIK', 'ELISA (T/B)', 18.5);

ELISA (T/B) in this record for M27-G09 (Fab, V domains shown) VH: EVQLLESGGGLVQPGGSLRLSCAASGFTFSEYDMAWVRQAPGKGLEWVSYIVSSGGFTSYADSVKGRFTISRDNSKNTLYLQMNSLRAEDTAVYYCTTWAGWIAAADYWGQGTLVTVSS VL: DIQMTQSPSSVSASVGDRITITCRTRQSISNYLNWYQQKPGEPPKLLIFAASSLQSGVPSRFSGSGTGTEFTLTISSLQPEDLAIYYCQQSYDIPFTFGQGTKLEIK : 2.2

These measurements were taken from patent US20260176378A1.
